Tested target: Cytochrome P450 2D6 (Homo sapiens)
Experiment notes: Cytochrome panel assay with activity outcomes
Condition notes: recombinant CYP, pro-luciferin dealkylation, luminescence, p450-cyp2d6; series mostly up to 57.1 µM
The whole screen tested about 16,000 compounds, of which about 2,600 (16%) were called active. Roughly 20% stayed inconclusive and do not appear here. Calls follow the shape of the dose curve; as a rule, active = well fitted curve in the direction sought with a large enough effect; inconclusive = small, poorly fitted or top-dose-only effect, or effect the other way; inactive = no such curve, though single readings can be large or run the other way. Only a sample is shown.
Return exactly one item of active, inactive

Worked cases, answers included:
C[C@@]12CC[C@@H]3c4ccc(O)cc4CC[C@H]3[C@H]1C[C@@H](O)[C@H]2O = inactive
CS(=O)(=O)N1CCC2(CC1)CN(C(c1ccccc1)c1ccccc1)C2 = active
N#CCCn1c(=O)c(-c2cc(F)cc(F)c2)nc2cnc(N3CCOCC3)nc21 = inactive
Cc1c(Cl)cccc1NC(=O)CN1CCC(C(O)(c2ccccc2)c2ccccc2)CC1 = active
N[C@H](C(=O)O)c1nn[nH]n1 = inactive
Cc1ccc(Nc2nc(Cl)nc(N(C)C#N)n2)cc1 = inactive

Now examine the next entry.
Per the records of this test, what outcome belongs to "O=C(NCc1cn(-c2ccccc2)nc1-c1ccccc1)c1cc([N+](=O)[O-])cc([N+](=O)[O-])c1" ? inactive
